The following compounds are shown together with reported composite z-score values.
Experiment: probe aDKK1 binding to arrayed compounds – biochemical, biotinylated probe, 635/667 nm fluorescence, primary screen (AID 1099);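 also: score merges 667nm spot fluorescence with signal to noise across triplicate slides; reference of the scale not given here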
Conditions: small-molecule microarray, higher = more signal

{"compound": "NC(=O)[C@H]1[C@@H]2C(=O)O[C@@H](c3ccccc3)[C@@H](c3ccccc3)N2[C@@H](c2ccc(O)cc2)[C@]12C(=O)Nc1ccc(C#CC3(O)CCCCCC3)cc12", "composite z-score": 0.156}
{"compound": "CN(C)C(=O)[C@@]1(CCS(=O)(=O)c2ccccc2)N=C(c2ccc(OCCCO)cc2)O[C@H]1c1ccccc1CN=[N+]=[N-]", "composite z-score": 0.182}
{"compound": "OCCCC1=CC(c2cccs2)N(Cc2cccc(OC(F)(F)F)c2)CC1 (stereo not given)", "composite z-score": -0.14}
{"compound": "CCOC(=O)C[C@H]1[C@H](OC(=O)c2cc3ccccc3oc2=O)[C@@H](NC(=O)c2ccc3ccccc3n2)c2cc(OCCCO)ccc2N1C(=O)c1ccc2ccccc2n1", "composite z-score": 0.273}
{"compound": "COCCOC(=O)N1C(=O)[C@@]2(c3cc(C#CC4(O)CCCCCC4)ccc31)[C@H](C(=O)NC[C@H](O)c1ccccc1)[C@H]1C(=O)O[C@H](c3ccccc3)[C@H](c3ccccc3)N1[C@@H]2c1ccc(OCCO)cc1", "composite z-score": -0.0726}
{"compound": "CC(C)N1CC=CC23O[C@@H]4C=CCOC(=O)[C@@H]4[C@H]2C(=O)N(CCCCCCO)[C@@H]3C1=O (stereo not given in full)", "composite z-score": -0.284}
{"compound": "COC(=O)c1c(CC[C@@H](CO)NC(=O)N[C@@H](C)Cn2cc(C3(O)CCCC3)nn2)oc(C(C)=O)c1C(=O)OC", "composite z-score": -0.196}
{"compound": "O=C1N(CCS(=O)(=O)c2ccccc2)Cc2ccccc2C[C@@]12COC(c1ccc(OCCCO)cc1)=N2", "composite z-score": 1.15}
{"compound": "COCCCNC(=O)[C@@]1(Cc2ccccc2)COC(c2ccc(OCCCO)cc2)=N1", "composite z-score": 0.583}
{"compound": "COCCOC(=O)N1C(=O)[C@@]2(c3cc(C#CCNC(N)=O)ccc31)[C@H](c1ccc(OCCO)cc1)N1[C@H](c3ccccc3)[C@H](c3ccccc3)OC(=O)[C@H]1[C@@H]2C(=O)N1CCN(c2ncccn2)CC1", "composite z-score": 0.46}
{"compound": "COC(=O)[C@@]1(Cc2ccc(OC)cc2)[C@H]2c3cc(C(=O)N4CCCC4)n(CCF)c3C[C@H]2CN1C(=O)c1ccccc1", "composite z-score": 2.71}
{"compound": "CC1CC/C=C\\[C@H]2OC34C=CCN(c5ccc(Cl)cc5)C(=O)[C@H]3N(C(CO)C(C)C)C(=O)[C@]4(C)C2C(=O)O1 (stereo not given in full)", "composite z-score": -0.0977}
{"compound": "O=C1N(Cc2ccccc2)c2ccccc2[C@H]2OC(c3ccc(OCCCO)cc3)=N[C@@]12CCS(=O)(=O)c1ccccc1", "composite z-score": -0.0921}
{"compound": "CCCCCCCCCCC(O)C1C=CC2C(=O)NC(=O)C2N1Nc1ccccn1 (stereo not given)", "composite z-score": 0.482}
{"compound": "C=C[C@@H](O)[C@H]1CC(c2ccccc2)=NO1", "composite z-score": -0.187}
